Give measured selectivity ratio for each item. Keep answers brief.
assay text: Selectivity index, ratio of CC50 for human HepG2 cells to compound effect for inhibition of Staphylococcus aureus SA-1199B NorA assessed as potentiation of ciprofloxacin-induced antibacterial activity by measuring minimum potetntiation concentration causing 4 fold reduction in ciprofloxacin MIC
Type: toxicity
details: read-out: Selectivity Index
One number for each entry.

Request: Retrieve selectivity ratio measured for CCCOc1ccc(-c2cc(OCCN3CCCCC3)c3ccccc3n2)cc1 and print it.
Response: 24.9

Request: Identify measured selectivity ratio corresponding to CCCOc1ccc(-c2cc(OCCN3CCCCC3)c3cc(OCc4ccccc4)ccc3n2)cc1
Response: 43.4

Request: Consider the compound CCCOc1ccc(-c2cc(OCCN(CC)CC)c3ccccc3n2)cc1 . State its measured selectivity ratio.
Response: 3.5

Pending compound:
Request: Supply recorded selectivity ratio for CCCOc1ccc(-c2cc(OCCN(CC)CC)c3cc(OCc4ccccc4)ccc3n2)cc1 here.
Response: 15.7

----------
Tested on: Staphylococcus aureus
assay text: Growth inhibition of Staphylococcus aureus SA-1199B expressing wild type norA and co-expressing GrlA A116E mutant by microdilution method
Type: organism-based
details: in vivo
quantity: MIC (µM)
Numbers only, in µM.

Request: Given the compound CCCOc1ccc(-c2cc(OCCN3CCCCC3)c3cc(OCCN(CC)CC)ccc3n2)cc1 , write its reported MIC.
Response: 197.7

Request: Provide only the value of recorded MIC for CCCOc1ccc(-c2cc(OCCN3CCCCC3)c3cc(OCCCN(C)C)ccc3n2)cc1
Response: 203.4

Request: For the compound CCCOc1ccc(-c2cc(OCCN3CCCCC3)c3cc(OCCCN4CCOCC4)ccc3n2)cc1 , give its reported MIC.
Response: 93.7

Request: Report MIC, nothing else, for this compound: CCCOc1ccc(-c2cc(OCCN(CC)CC)c3cc(O)ccc3n2)cc1
Response: 126.7

Would you kindly look at the next entry?
Request: Output MIC of CCCOc1ccc(-c2cc(OCCN3CCCCC3)c3cc(O)ccc3n2)cc1
Response: 61.5

----------
System: Staphylococcus aureus
assay text: Growth inhibition of Staphylococcus aureus SA-1199 expressing wild type norA by microdilution method
Type: organism-based
details: in vivo
quantity: MIC

Provide the reported MIC of each entry below, same order.
1. CCCOc1ccc(-c2cc(OCCN(CC)CC)c3cc(OCc4ccccc4)ccc3n2)cc1
2. COC(=O)[C@H]1[C@H]2C[C@@H]3c4[nH]c5cc(OC)ccc5c4CCN3C[C@H]2C[C@@H](OC(=O)c2cc(OC)c(OC)c(OC)c2)[C@@H]1OC

Response:
1. > 100 µg/mL
2. > 100 µg/mL

Request: Lab note: record MIC of CCCOc1ccc(-c2cc(OCCN(CC)CC)c3cc(OCCCN4CCOCC4)ccc3n2)cc1 tested on Staphylococcus aureus.
Response: > 100 µg/mL

----------
System: Staphylococcus aureus
assay text: Growth inhibition of Staphylococcus aureus ATCC 25923 by microdilution method
Type: organism-based
details: in vivo
quantity: MIC

Sample answers from the record:
Request: Please give the documented MIC of CCCOc1ccc(-c2cc(OCCN(CC)CC)c3cc(OCc4ccccc4)ccc3n2)cc1
Response: > 100 mg/L

Request: Fill in reported MIC for this entry: CCCOc1ccc(-c2cc(OCCN3CCCCC3)c3cc(OCCN(CC)CC)ccc3n2)cc1
Response: 100 mg/L

Value sought for every listed molecule: MIC.
1. CCCOc1ccc(-c2cc(OCCN3CCCCC3)c3cc(OCCCN4CCOCC4)ccc3n2)cc1
2. CCCOc1ccc(-c2cc(OCCN(CC)CC)c3cc(O)ccc3n2)cc1
3. CCCOc1ccc(-c2cc(OCCN(CC)CC)c3cc(OCCCN(C)C)ccc3n2)cc1
4. CCCOc1ccc(-c2cc(OCCN(CC)CC)c3cc(OCCCN4CCOCC4)ccc3n2)cc1
5. CCCOc1ccc(-c2cc(OCCN3CCCCC3)c3cc(OCCCN(C)C)ccc3n2)cc1

Response:
["100 mg/L", "50 mg/L", "100 mg/L", "100 mg/L", "100 mg/L"]

Would you be so kind as to report MIC for each listed record?
1. CCCOc1ccc(-c2cc(OCCN3CCCCC3)c3cc(O)ccc3n2)cc1
2. CCCOc1ccc(-c2cc(OCCN(CC)CC)c3cc(OCCN(CC)CC)ccc3n2)cc1

Response:
1. 25 mg/L
2. 100 mg/L

----------
study system: Quinolone resistance protein NorA (Staphylococcus aureus) (UniProt P0A0J7)
Sequence (whole entry): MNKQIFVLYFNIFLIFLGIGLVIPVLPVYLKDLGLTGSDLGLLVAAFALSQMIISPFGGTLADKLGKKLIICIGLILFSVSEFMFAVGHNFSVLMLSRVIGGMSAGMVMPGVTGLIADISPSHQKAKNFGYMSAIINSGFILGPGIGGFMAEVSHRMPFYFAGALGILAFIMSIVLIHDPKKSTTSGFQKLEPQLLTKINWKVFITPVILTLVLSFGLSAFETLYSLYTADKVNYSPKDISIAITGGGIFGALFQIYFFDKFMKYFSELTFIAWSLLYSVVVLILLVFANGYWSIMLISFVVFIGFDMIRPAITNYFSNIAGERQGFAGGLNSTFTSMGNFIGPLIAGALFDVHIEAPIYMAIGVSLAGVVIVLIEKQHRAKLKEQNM
assay text: Inhibition of Staphylococcus aureus SA-1199B NorA assessed as reduction in EtBr efflux at 50 uM measured over 5 mins by fluorescence assay relative to control
Decision: inhibition >= 90% yields met, all other cases yield not met.

Recorded results for 2 molecules are shown here.
Request: Test whether the molecule CCCOc1ccc(-c2cc(OCCN3CCCCC3)c3cc(OCCCN4CCOCC4)ccc3n2)cc1 records inhibition of 90% or higher.
Response: met

Request: Does the reported inhibition for CCCOc1ccc(-c2cc(OCCN(CC)CC)c3cc(OCCN(CC)CC)ccc3n2)cc1 fall at or above the 90% mark?
Response: not met

Note: attention shifts to another entry.
Request: Reported inhibition reaches at least 90% for CCCOc1ccc(-c2cc(OCCN3CCCCC3)c3cc(O)ccc3n2)cc1 ?
Response: not met

----------
System: Staphylococcus aureus
assay text: Growth inhibition of Staphylococcus aureus SA-1199B expressing wild type norA and co-expressing GrlA A116E mutant by microdilution method
Type: organism-based
details: in vivo
Give measured MIC for each item. Keep answers brief.

Sample records with MIC:
Request: Report MIC for COC(=O)[C@H]1[C@H]2C[C@@H]3c4[nH]c5cc(OC)ccc5c4CCN3C[C@H]2C[C@@H](OC(=O)c2cc(OC)c(OC)c(OC)c2)[C@@H]1OC
Response: > 164 µM

Request: For the molecule CCCOc1ccc(-c2cc(OCCN(CC)CC)c3cc(OCCCN4CCOCC4)ccc3n2)cc1 , give its measured MIC value.
Response: > 191.7 µM

Request: Fill in MIC for record CCCOc1ccc(-c2cc(OCCN(CC)CC)c3cc(OCCN(CC)CC)ccc3n2)cc1
Response: > 202.6 µM

Request: Supply MIC value. Item: CCCOc1ccc(-c2cc(OCCN(CC)CC)c3cc(OCCCN(C)C)ccc3n2)cc1
Response: > 208.5 µM

Here is the next item to consider.
Request: Respond only with MIC recorded for O=C(O)c1cn(C2CC2)c2cc(N3CCNCC3)c(F)cc2c1=O
Response: 10 µg/mL
